- Tested on: S. aureus DSM 20231;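 note: first quartile when negative (synergy) and third quartile when positive (antagonism)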
- Method notes: Bliss interaction score (quartile over a dose matrix) (fitness difference); higher = more antagonism (negative = synergy)
Measurement label: Bliss interaction score
Answer with a bare number; do not write a unit.

Compound	Bliss interaction score
O=C(O)c1cn(C2CC2)c2cc(N3CCNCC3)c(F)cc2c1=O [Ciprofloxacin] + C[C@@H]1O[C@@H]1P(=O)(O)O [Fosfomycin]	0.042
N#CC(C#N)=NNc1cccc(Cl)c1 [CCCP] + CC[C@H]1OC(=O)[C@H](C)C(=O)[C@H](C)[C@@H](O[C@@H]2O[C@H](C)C[C@H](N(C)C)[C@H]2O)[C@](C)(OC)C[C@@H](C)C(=O)[C@H](C)[C@H]2N(CCCCn3cnc(-c4cccnc4)c3)C(=O)O[C@]12C [Telithromycin]	-0.0246

// map CO/N=C(\C(=O)N[C@@H]1C(=O)N2C(C(=O)O)=C(COC(N)=O)CS[C@H]12)c1ccco1 [Cefuroxime] + CC1=C(C(=O)O)N2C(=O)[C@@H](NC(=O)[C@H](N)c3ccccc3)[C@H]2SC1 [Cephalexin] to recorded Bliss interaction score (system: S. aureus DSM 20231) 0.0711
